Recorded values, source patent US20050059726A1.

Biological target: human Factor Xa (Homo sapiens, UniProt P00742)
Sequence (P00742 235-488 limits assumed): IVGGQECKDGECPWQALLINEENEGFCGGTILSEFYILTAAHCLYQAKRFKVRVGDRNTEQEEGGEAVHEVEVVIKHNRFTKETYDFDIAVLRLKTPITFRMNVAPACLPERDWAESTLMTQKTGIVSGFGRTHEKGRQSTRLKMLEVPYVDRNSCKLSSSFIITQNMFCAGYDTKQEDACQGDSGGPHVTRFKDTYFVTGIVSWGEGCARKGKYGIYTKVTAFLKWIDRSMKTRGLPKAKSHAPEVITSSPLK
Sequence (P00742 41-179 partner limits assumed): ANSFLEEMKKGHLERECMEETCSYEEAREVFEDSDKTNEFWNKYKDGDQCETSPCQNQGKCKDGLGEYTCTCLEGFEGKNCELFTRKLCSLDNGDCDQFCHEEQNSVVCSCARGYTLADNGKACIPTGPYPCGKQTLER
Experiment: In vitro assay for inhibition of Factor Xa (2), fluorogenic assay
Type: biochemical
Conditions: substrate Rhodamine 110, bis-(CBZ-glycylglycyl-L-arginine amide 10 μM), Ki calculated from IC50
Property: Ki; scope: individual compounds

Cc1cscc1-c1ccc(N2CC[C@H](NS(=O)(=O)c3ccc4cc(Cl)ccc4c3)C2=O)c(F)c1 ... < 200 nM

Input: For the compound O=C1[C@@H](NS(=O)(=O)c2ccc3cc(Cl)ccc3c2)CCN1c1ccc(-c2cc[n+]([O-])cc2)cc1F , give its reported Ki.
Output: < 20 nM

Input: Check the records and state Ki for O=C1[C@@H](NS(=O)(=O)/C=C/c2ccc(Cl)s2)CCN1c1ccc(-c2ccccc2C(F)(F)F)cn1
Output: < 10 nM

Input: Provide one value: measured Ki of CS(=O)(=O)c1ccccc1-c1ccc(N2CC[C@H](NS(=O)(=O)c3cc4ccc(Cl)cc4s3)C2=O)c(F)c1
Output: < 10 nM

---

pKi values for the compounds below.
Target: human Factor Xa (Homo sapiens, UniProt P00742)
Assay: In vitro assay for inhibition of Factor Xa (2), fluorogenic assay
Type: biochemical
Details: substrate Rhodamine 110, bis-(CBZ-glycylglycyl-L-arginine amide 10 μM), Ki calculated from IC50
pKi: −log10 of the molar value.

Input: // fetch pKi given entry O=C1[C@@H](NS(=O)(=O)c2ccc3cc(Cl)ccc3c2)CCN1c1ccc(-c2cccnc2)cc1F
Output: > 8.00

---

Collected Ki values appear next to each entry.
Target: human Factor Xa (Homo sapiens)
Experiment: In vitro assay for inhibition of Factor Xa (2), fluorogenic assay
Assay type: biochemical
Details: substrate Rhodamine 110, bis-(CBZ-glycylglycyl-L-arginine amide 10 μM), Ki calculated from IC50
Counter-ions that a name gives are not always drawn.

Solved entries (count: 5):
C[N+](C)(CC(N)=O)Cc1nccn1-c1ccc(N2CC[C@H](NS(=O)(=O)CCc3ccc(Cl)s3)C2=O)c(F)c1 [Example 143, Formate] ... < 10 nM
NC(=O)CN([C@H]1CCN(c2ccc(-c3ccccc3S(N)(=O)=O)cc2F)C1=O)S(=O)(=O)c1cc2ccc(Cl)cc2s1 [Example 140, Formate] ... < 10 nM
C[N+](C)(CC(N)=O)Cc1nccn1-c1ccc(N2CC[C@H](NS(=O)(=O)c3cc4ccc(Cl)cc4s3)C2=O)c(F)c1 [Example 144, Formate] ... < 10 nM
COc1ccncc1-c1ccc(N2CC[C@H](NS(=O)(=O)c3ccc4cc(Cl)ccc4c3)C2=O)c(F)c1 [Example 62] ... < 10 nM
CC(O)c1ccc(N2CC[C@H](NS(=O)(=O)/C=C/c3ccc(Cl)s3)C2=O)c(F)c1 (some centres unmarked) [Example 135] ... < 200 nM

Input: Please give the documented Ki of CC(=O)Nc1ccc(N2CC[C@H](NS(=O)(=O)c3cc4ccc(Cl)cc4s3)C2=O)c(F)c1 [Example 117]
Output: < 1000 nM

Input: For the compound COc1ncc(-c2ccc(N3CC[C@H](NS(=O)(=O)c4ccc5cc(Cl)ccc5c4)C3=O)c(F)c2)c(OC)n1 [Example 56] , give its reported Ki.
Output: < 200 nM

Input: Tell us which Ki value is on record for CC(=O)c1ccc(N2CC[C@H](NS(=O)(=O)/C=C/c3ccc(Cl)s3)C2=O)nc1 [Example 113]
Output: < 200 nM

Input: Tell me its Ki given N#Cc1ccc(N2CC[C@H](NS(=O)(=O)CCc3ccc(Cl)s3)C2=O)c(F)c1 [Example 99] as the entry.
Output: < 200 nM

Input: Indicate the recorded Ki value for this compound: Cc1cn(-c2ccc(N3CC[C@H](NS(=O)(=O)c4ccc5cc(Cl)ccc5c4)C3=O)c(F)c2)cn1 [Example 128]
Output: < 10 nM

Input: For the compound CS(=O)(=O)c1ccccc1-c1ccc(N2CC[C@H](N(CCN3CCOCC3)S(=O)(=O)/C=C/c3ccc(Cl)s3)C2=O)nc1 [Example 42] , report Ki.
Output: < 10 nM

Input: Return reported Ki. Input compound: C/C(=C\S(=O)(=O)N[C@H]1CCN(c2ccc(-c3ccccc3S(N)(=O)=O)cc2F)C1=O)c1ccc(Cl)s1 [Example 16]
Output: < 10 nM

Input: Given the compound O=C1[C@@H](NS(=O)(=O)c2ccc3cc(Cl)ccc3c2)CCN1c1ccc(-n2ccnc2)cc1F [Example 122] , write its reported Ki.
Output: < 10 nM

Input: Return Ki for the following compound: CC(=O)c1ccc(N2CC[C@H](NS(=O)(=O)/C=C/c3ccc(Cl)s3)C2=O)cc1 [Example 138]
Output: < 200 nM
